- Study target: ZCCHC11 (UniProt Q5TAX3)
- Sequence (Q5TAX3 whole entry): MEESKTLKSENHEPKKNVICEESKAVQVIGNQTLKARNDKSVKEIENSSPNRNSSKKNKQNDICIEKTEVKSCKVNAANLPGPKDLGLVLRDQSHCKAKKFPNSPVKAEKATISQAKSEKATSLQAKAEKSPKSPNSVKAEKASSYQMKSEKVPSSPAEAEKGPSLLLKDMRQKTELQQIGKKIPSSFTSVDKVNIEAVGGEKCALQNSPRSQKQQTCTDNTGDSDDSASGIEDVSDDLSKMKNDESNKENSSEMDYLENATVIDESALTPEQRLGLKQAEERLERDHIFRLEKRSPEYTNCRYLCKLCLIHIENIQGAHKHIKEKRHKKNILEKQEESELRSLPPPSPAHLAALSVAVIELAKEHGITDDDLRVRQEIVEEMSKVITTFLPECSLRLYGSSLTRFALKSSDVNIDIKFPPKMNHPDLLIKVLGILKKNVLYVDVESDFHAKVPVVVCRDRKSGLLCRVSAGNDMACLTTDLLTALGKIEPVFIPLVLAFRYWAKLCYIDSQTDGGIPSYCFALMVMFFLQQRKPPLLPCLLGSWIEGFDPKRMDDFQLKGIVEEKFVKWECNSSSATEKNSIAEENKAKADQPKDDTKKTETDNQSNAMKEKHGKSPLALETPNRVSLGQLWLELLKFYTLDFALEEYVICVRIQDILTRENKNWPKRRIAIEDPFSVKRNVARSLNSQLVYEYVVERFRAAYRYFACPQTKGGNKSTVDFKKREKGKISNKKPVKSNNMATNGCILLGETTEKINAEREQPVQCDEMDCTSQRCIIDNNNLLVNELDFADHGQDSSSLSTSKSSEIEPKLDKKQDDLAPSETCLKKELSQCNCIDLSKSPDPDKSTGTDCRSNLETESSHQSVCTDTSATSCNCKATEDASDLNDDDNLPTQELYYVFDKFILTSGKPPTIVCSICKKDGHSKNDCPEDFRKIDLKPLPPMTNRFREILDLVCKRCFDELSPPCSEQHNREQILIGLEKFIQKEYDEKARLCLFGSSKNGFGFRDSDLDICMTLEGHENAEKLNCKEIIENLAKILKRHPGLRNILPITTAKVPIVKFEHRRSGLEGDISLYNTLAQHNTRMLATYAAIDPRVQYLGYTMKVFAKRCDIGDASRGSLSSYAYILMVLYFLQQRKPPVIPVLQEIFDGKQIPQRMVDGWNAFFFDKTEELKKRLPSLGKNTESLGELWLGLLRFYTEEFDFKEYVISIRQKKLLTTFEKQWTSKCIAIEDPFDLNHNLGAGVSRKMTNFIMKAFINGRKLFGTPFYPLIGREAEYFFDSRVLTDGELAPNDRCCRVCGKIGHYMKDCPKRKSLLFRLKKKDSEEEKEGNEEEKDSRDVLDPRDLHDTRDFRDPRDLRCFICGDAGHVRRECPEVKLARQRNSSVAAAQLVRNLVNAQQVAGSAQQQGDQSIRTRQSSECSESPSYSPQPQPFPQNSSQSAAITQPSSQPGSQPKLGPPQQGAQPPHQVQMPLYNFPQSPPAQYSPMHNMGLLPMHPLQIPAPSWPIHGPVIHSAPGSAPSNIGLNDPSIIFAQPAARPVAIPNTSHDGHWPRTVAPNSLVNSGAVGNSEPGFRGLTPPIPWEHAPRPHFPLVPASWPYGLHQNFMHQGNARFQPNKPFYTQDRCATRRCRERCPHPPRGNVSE
- Protocol details: EC50 of free RNA motif oligo competing protein binding to immobilised probe

{"columns": ["Seq", "Display unit", "EC50"],
 "data": [
  ["UAUUUAU", "µM", 0.108]
]}

* * *

- Study target: TTC37 (UniProt Q6PGP7)
- Sequence (Q6PGP7 whole entry): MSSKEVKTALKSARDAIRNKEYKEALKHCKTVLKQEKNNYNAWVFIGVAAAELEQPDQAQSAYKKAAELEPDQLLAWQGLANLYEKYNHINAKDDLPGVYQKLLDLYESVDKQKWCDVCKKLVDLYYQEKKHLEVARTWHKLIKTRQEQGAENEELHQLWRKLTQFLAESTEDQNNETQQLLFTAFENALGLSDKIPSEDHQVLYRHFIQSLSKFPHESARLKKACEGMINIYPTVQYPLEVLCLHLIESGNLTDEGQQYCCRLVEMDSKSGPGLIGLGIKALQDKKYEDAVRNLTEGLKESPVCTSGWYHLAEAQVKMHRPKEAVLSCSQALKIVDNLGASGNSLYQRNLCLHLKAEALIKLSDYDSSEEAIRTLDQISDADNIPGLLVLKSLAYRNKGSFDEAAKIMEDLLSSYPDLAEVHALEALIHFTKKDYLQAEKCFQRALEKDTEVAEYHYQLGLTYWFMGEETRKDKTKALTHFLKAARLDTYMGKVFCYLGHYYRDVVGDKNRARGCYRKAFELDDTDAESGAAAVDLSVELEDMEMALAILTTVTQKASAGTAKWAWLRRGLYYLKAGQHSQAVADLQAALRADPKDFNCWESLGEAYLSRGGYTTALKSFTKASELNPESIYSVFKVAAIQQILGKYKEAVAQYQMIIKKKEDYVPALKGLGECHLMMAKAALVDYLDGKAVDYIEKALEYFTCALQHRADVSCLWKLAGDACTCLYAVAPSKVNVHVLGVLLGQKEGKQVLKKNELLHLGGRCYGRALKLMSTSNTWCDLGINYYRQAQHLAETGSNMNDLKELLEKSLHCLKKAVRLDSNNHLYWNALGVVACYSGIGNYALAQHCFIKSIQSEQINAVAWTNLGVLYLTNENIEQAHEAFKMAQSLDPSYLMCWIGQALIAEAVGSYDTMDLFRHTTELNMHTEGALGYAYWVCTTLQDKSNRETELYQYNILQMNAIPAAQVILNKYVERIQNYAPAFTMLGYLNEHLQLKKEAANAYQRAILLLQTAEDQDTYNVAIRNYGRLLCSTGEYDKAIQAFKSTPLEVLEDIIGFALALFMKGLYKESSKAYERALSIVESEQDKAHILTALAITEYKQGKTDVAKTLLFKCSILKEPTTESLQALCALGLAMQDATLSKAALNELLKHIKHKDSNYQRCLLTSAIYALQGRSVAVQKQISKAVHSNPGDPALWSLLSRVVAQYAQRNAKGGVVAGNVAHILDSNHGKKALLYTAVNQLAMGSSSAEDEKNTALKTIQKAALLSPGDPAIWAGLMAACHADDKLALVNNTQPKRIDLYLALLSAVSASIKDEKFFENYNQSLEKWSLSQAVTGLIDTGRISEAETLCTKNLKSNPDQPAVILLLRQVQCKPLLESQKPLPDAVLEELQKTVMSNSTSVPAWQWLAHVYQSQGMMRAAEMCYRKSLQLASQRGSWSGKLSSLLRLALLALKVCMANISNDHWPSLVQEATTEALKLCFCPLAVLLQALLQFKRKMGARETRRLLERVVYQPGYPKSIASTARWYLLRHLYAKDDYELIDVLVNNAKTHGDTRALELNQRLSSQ
- Protocol details: Kd (EC50 corrected by depletion factor)
pKd: −log10 of the molar value.
Measure: pKd

{"columns": ["Seq", "Study target", "Measure", "Readout value"],
 "data": [
  ["UAUUUAU", "TTC37 (UniProt Q6PGP7)", "pKd", 6.24]
]}

* * *

- Study target: ZNFX1 (UniProt Q9P2E3)
- Sequence (Q9P2E3 whole entry): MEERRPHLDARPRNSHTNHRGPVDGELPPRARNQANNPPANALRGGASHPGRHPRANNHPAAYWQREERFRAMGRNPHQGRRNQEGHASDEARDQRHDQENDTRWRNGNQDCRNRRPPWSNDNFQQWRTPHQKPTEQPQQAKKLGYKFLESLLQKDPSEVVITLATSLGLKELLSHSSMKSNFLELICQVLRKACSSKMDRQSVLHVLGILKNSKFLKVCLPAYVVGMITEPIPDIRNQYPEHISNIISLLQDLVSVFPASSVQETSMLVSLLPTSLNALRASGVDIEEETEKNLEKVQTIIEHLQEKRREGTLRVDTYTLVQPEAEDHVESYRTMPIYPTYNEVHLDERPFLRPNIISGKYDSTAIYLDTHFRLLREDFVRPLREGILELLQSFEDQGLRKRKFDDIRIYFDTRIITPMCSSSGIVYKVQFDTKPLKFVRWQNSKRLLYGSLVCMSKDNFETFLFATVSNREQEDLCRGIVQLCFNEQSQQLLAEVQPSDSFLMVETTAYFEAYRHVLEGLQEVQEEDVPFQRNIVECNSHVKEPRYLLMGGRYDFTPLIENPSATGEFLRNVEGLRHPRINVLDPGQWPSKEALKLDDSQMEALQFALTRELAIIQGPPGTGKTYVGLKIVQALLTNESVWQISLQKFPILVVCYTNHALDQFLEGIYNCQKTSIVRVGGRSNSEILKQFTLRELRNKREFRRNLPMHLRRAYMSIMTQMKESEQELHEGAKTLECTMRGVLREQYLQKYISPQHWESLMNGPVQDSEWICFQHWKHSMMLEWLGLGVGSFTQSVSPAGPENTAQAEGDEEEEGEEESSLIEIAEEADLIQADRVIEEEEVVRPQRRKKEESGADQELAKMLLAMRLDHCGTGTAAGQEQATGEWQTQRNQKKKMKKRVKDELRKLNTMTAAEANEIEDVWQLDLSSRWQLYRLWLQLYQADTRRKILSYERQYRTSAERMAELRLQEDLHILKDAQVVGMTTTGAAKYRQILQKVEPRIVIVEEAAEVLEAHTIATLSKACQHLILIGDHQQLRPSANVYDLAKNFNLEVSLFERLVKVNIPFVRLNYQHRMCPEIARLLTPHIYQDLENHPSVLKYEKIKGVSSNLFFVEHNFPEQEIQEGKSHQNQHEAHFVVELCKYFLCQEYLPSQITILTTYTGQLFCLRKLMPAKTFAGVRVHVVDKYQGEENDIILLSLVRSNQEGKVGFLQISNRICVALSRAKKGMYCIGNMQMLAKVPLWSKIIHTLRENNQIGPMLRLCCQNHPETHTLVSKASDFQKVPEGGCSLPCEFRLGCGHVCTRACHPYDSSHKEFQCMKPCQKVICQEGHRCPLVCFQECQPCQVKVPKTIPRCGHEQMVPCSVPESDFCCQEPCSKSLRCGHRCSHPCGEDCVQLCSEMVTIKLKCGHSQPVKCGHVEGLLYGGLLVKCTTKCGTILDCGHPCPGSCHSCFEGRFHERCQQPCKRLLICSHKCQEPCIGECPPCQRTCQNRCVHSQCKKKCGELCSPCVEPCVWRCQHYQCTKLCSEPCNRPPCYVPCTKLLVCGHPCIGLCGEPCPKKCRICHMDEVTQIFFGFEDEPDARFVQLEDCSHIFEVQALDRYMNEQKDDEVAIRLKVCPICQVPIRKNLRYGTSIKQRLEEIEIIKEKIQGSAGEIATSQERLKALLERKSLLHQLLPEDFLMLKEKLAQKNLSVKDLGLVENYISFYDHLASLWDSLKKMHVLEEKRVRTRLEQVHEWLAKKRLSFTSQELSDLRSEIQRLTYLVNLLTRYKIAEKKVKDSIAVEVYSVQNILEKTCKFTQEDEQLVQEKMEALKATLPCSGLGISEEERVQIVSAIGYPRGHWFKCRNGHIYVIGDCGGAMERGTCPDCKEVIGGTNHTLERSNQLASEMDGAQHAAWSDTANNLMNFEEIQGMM
- Protocol details: EC50 of free RNA motif oligo competing protein binding to immobilised probe
pEC50: −log10 of the molar value.

{"columns": ["Seq", "pEC50"],
 "data": [
  ["UAUUUAU", 6.36]
]}
